# PROCEDURE TEXT: physchem
# TEST CONDITIONS: PBS, pH 6.5
# Description: Solubility of compound in PBS at pH 6.5 incubated for over night by HPLC-UV based lyophilization solubility assay
MEASUREMENT NAME: solubility

* CCNc1cc(F)cc2c1[nH]c1ncc(-c3cnc(C(N)=O)nc3)c(-n3ccc(C(F)(F)F)n3)c12 | < 0.2 µg/mL
* CCNc1cc(F)cc2c1[nH]c1ncc(-c3cncnc3)c(-n3ccc(C(F)(F)F)n3)c12 | < 0.2 µg/mL
* CCNc1cc(F)cc2c1[nH]c1ncc(-c3cnc(NCC4(C(=O)O)CC4)nc3)c(-n3ccc(C(F)(F)F)n3)c12 | 133 µg/mL
* CCNc1cc(F)cc2c1[nH]c1ncc(-c3cncc(C#N)c3)c(-n3cc(C(F)(F)F)cn3)c12 | < 1 µg/mL
* CCNc1cc(F)cc2c1[nH]c1ncc(-c3cnc(NC)nc3)c(-n3ccc(C(F)(F)F)n3)c12 | < 1 µg/mL

For reference, reported solubility for CCNc1cc(F)cc2c1[nH]c1ncc(-c3cnc(N4CCNCC4)nc3)c(-n3ccc(C(F)(F)F)n3)c12 stands at < 1 µg/mL

The molecule CCNc1cc(F)cc2c1[nH]c1ncc(-c3cnc([C@@H](C)O)nc3)c(-n3ccc(C(F)(F)F)n3)c12 showed solubility equal to < 1 µg/mL

Notebook: CCNc1cc(F)cc2c1[nH]c1ncc(-c3cncc(C#N)c3)c(-n3ccc(C#N)n3)c12 , solubility read as < 1 µg/mL

Summary for this molecule, CCNc1cc(F)cc2c1[nH]c1ncc(-c3cncc(C#N)c3)c(-n3ccc(C)n3)c12 : solubility is < 1 µg/mL

Reported solubility for CCNc1cc(F)cc2c1[nH]c1ncc(-c3cnc(OC)nc3)c(-n3cc(CN)c(C(F)(F)F)n3)c12 was 15 µg/mL

Entry under test: CCNc1cc(F)cc2c1[nH]c1ncc(-c3cnc(OC)nc3)c(-n3nc(C(F)(F)F)c4c3CNC4)c12 . Its solubility was 4 µg/mL

get_value(item= CNc1cc(F)cc2c1[nH]c1ncc(-c3cnc(C4(C(=O)O)CC4)nc3)c(-n3ccc(C(F)(F)F)n3)c12 , readout=solubility) returns 148 µg/mL

Recorded result, CCNc1cc(F)cc2c1[nH]c1ncc(-c3cncc(C#N)c3)c(-n3ccc(C(C)C)n3)c12 , solubility: < 0.7 µg/mL

# molecule CCNc1cc(F)cc2c1[nH]c1ncc(-c3cnc(NC4CCNC4)nc3)c(-n3ccc(C(F)(F)F)n3)c12 (stereo not given) ; its solubility = 8.3 µg/mL

// solubility value for CCNc1cc(F)cc2c1[nH]c1ncc(-c3cncc(C#N)c3)c(-n3nc(C(F)F)c4c3CNC4)c12 : < 1 µg/mL

Memo: CCNc1cc(F)cc2c1[nH]c1ncc(-c3cncc(C#N)c3)c(-n3ncc4c3CCNC4)c12 , reported solubility: 200 µg/mL

Recorded solubility (molecule CCNc1cc(F)cc2c1[nH]c1ncc(-c3cnc([C@H](C)O)nc3)c(-n3ccc(C(F)(F)F)n3)c12 ): < 0.2 µg/mL

Looking up CCNc1cc(F)cc2c1[nH]c1ncc(-c3cncc(C#N)c3)c(-n3ccc(C(C)(C)C)n3)c12 , I see its solubility listed as < 0.3 µg/mL

Form: molecule = CCNc1cc(F)cc2c1[nH]c1ncc(-c3cnc(OC)nc3)c(-n3ncc4c3CNC4)c12 ; solubility = 350 µg/mL

###

# PROCEDURE TEXT: in vitro
# TEST CONDITIONS: mouse, liver microsomes
# Description: Intrinsic clearance in mouse liver microsomes preincubated for 10 mins followed by NADPH regenerating system addition and measured up to 30 mins by LC/MS-MS analysis
MEASUREMENT NAME: CLint scaled at 0.5 h (mL/min/kg)

- CCNc1cc(F)cc2c1[nH]c1ncc(-c3cnc(NC)nc3)c(-n3ccc(C(F)(F)F)n3)c12: 53.1
- CCNc1cc(F)cc2c1[nH]c1ncc(-c3cncc(C#N)c3)c(-n3ncc4c3CNCC4)c12: 20.2

I. CCNc1cc(F)cc2c1[nH]c1ncc(-c3cnc(NC4CCNCC4)nc3)c(-n3ccc(C(F)(F)F)n3)c12
II. CCNc1cc(F)cc2c1[nH]c1ncc(-c3cnc(OC)nc3)c(-n3ncc4c3CNC4)c12
IN: Which entry has a larger number for CLint scaled at 0.5 h, I or II ? // respond with label for picked entry
OUT: I
(I: 57.9 mL/min/kg, II: 21.8 mL/min/kg)

###

# Tested on: Acinetobacter baumannii
# PROCEDURE TEXT: Antibacterial activity against Acinetobacter baumannii ATCC 19606 assessed as reduction in microbial growth preincubated for 20 to 24 hrs followed by subculture in absence of compound and measured on day 4 CLSI based broth microdilution susceptibility method
# Type: functional
# TEST CONDITIONS: time hrs 20-24
MEASUREMENT NAME: MIC (µg/mL)

These solved cases illustrate the format of a correct answer.
- CCNc1cc(F)cc2c1[nH]c1ncc(-c3cnc(OC)nc3)c(-n3ncc4c3CNC4)c12: 5.56
- CCNc1cc(F)cc2c1[nH]c1ncc(-c3cncc(C#N)c3)c(-n3ccc(C(F)(F)F)n3)c12: 0.73
- CCNc1cc(F)cc2c1[nH]c1ncc(-c3cnc4ccnn4c3)c(-n3ccc(C(F)(F)F)n3)c12: 0.38
- CCNc1cc(F)cc2c1[nH]c1ncc(-c3cnc(OC)nc3)c(-n3cc(CN)c(C(F)(F)F)n3)c12: 0.78
- CCNc1cc(F)cc2c1[nH]c1ncc(-c3cncc(CO)c3)c(-n3ccc(C(F)(F)F)n3)c12: 73

P. CCNc1cc(F)cc2c1[nH]c1ncc(-c3cncnc3)c(-n3ccc(C(F)(F)F)n3)c12
Q. CCNc1cc(F)cc2c1[nH]c1ncc(-c3cncc(N)c3)c(-n3ccc(C(F)(F)F)n3)c12
R. CCNc1cc(F)cc2c1[nH]c1ncc(-c3cncc(C(N)=O)c3)c(-n3ccc(C(F)(F)F)n3)c12
IN: Descending sort on MIC required. Kindly provide the labels arranged according to the requested ordering.
OUT: Q, R, P
(Q: 1.42 µg/mL, R: 0.76 µg/mL, P: 0.17 µg/mL)

###

# Tested on: Escherichia coli
# PROCEDURE TEXT: microbe, parasite or virus in culture
# TEST CONDITIONS: ATCC 29213
# Description: Antibacterial activity against Escherichia coli ATCC 29213 assessed as reduction in microbial growth preincubated for 20 to 24 hrs followed by subculture in absence of compound and measured on day 4 CLSI based broth microdilution susceptibility method
Each entry below carries its reported MIC.

Worked examples follow.
- CCNc1cc(F)cc2c1[nH]c1ncc(-c3cncc(Cc4n[nH]c(=O)o4)c3)c(-n3ccc(C(F)(F)F)n3)c12: < 0.056 µg/mL
- CCNc1cc(F)cc2c1[nH]c1ncc(-c3cnc(C(=O)NC)nc3)c(-n3ccc(C(F)(F)F)n3)c12: < 0.25 µg/mL
- CCNc1cc(F)cc2c1[nH]c1ncc(-c3cncc(C#N)c3)c(-n3ccc(C(=O)O)n3)c12: > 16 µg/mL

Please fill in: MIC reported for CCNc1cc(F)cc2c1[nH]c1ncc(-c3cncc(C#N)c3)c(-n3cc(C(F)(F)F)cn3)c12 = < 0.016 µg/mL

Reported MIC ( CCNc1cc(F)cc2c1[nH]c1ncc(-c3cncc(N)c3)c(-n3ccc(C(F)(F)F)n3)c12 ) = < 0.016 µg/mL

The reported MIC of the compound CCNc1cc(F)cc2c1[nH]c1ncc(-c3cnc(N4CCNCC4)nc3)c(-n3ccc(C(F)(F)F)n3)c12 was 0.31 µg/mL

// recorded MIC for CCNc1cc(F)cc2c1[nH]c1ncc(-c3cncc(Cc4ncco4)c3)c(-n3ccc(C(F)(F)F)n3)c12 : < 0.056 µg/mL

MIC measured on CCNc1cc(F)cc2c1[nH]c1ncc(-c3cncc(C#N)c3)c(-n3ccc(C#N)n3)c12 = < 0.016 µg/mL

###

# PROCEDURE TEXT: physchem
# Description: Ionization constant (acid), pKa of the compound by photometric titration assay
MEASUREMENT NAME: pKa

Record excerpt, results attached:
* CCNc1cc(F)cc2c1[nH]c1ncc(-c3cncc(CN)c3)c(-n3ccc(C(F)(F)F)n3)c12 | 8.62
* CCNc1cc(F)cc2c1[nH]c1ncc(-c3cncc(C#N)c3)c(-n3ncc4c3CNC4)c12 | 7.62
* CCNc1cc(F)cc2c1[nH]c1ncc(-c3cncc(N)c3)c(-n3ccc(C(F)(F)F)n3)c12 | 4.84
* CCNc1cc(F)cc2c1[nH]c1ncc(-c3cncc(C#N)c3)c(-n3cc(CN)c(C(F)(F)F)n3)c12 | 8.08
* CCNc1cc(F)cc2c1[nH]c1ncc(-c3cnc(NC4CCNCC4)nc3)c(-n3ccc(C(F)(F)F)n3)c12 | 9.52

A. CCNc1cc(F)cc2c1[nH]c1ncc(-c3cnc(N)nc3)c(-n3ccc(C(F)(F)F)n3)c12
B. CCNc1cc(F)cc2c1[nH]c1ncc(-c3cnc(OC4CCNCC4)nc3)c(-n3ccc(C(F)(F)F)n3)c12
C. CCNc1cc(F)cc2c1[nH]c1ncc(-c3cncc(C#N)c3)c(-n3ccc(N)n3)c12
IN: Order the 3 molecules from highest to lowest pKa. # respond with the labels, arranged in the requested order
OUT: B, A, C
(B: 9.06, A: 4.39, C: 2.02)
